assay: qHTS assay for small molecule disruptors of the mitochondrial membrane potential - cell viability (AID 720634); conditions: HepG2 viability, ATP luminescence (CellTiter-Glo), 1 h; series mostly up to 83.2 µM;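 further: human HepG2 liver cancer cells; on the % scale 0 is the no-effect control and ±100 the full control effect; nearly all actives have a fitted effect of over 20% in size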
Records with an inconclusive call do not appear. The source made the active and inactive calls. The call rests on the fitted dose curve.
reported-endpoint: outcome

Example results:
• CCOP(OCC)OCC = inactive
• Cc1cc(Cl)ccc1O = inactive
• c1cc2c3c(cccc3c1)CC2 = inactive
• CC(C)C1(C)N=C(c2nc3ccccc3cc2C(=O)O)NC1=O (stereo not given) = inactive
• Cc1cccc([N+](=O)[O-])c1 = inactive

Please supply outcome for each of the following items, keeping them in order.
1. O=[N+]([O-])c1ccc([As](=O)(O)O)cc1
2. COP(N)(=O)SC (stereo not given)
3. CCC[N+](=O)[O-]
4. CC1C=[C-]C=C1.[C-]#[O+].[C-]#[O+].[C-]#[O+].[Mn]
5. CCC[CH2][Sn]([Cl])([Cl])[Cl]

Response given:
inactive
inactive
inactive
inactive
inactive

----------
target: Cytochrome P450 3A4 (Homo sapiens); assay: Cytochrome P450 Family 3 Subfamily A Member 4 (CYP3A4) small molecule antagonists: luciferase reporter qHTS assay (AID 1671201); settings: P450-Glo CYP3A4 enzyme, luciferin luminescence, 1 h; series mostly up to 115 µM; further: nearly all actives have a fitted effect of over 50% in size
Results filed as inconclusive are left out. Active and inactive are the calls of the source. Calls follow the shape of the dose curve; as a rule, active = well fitted inhibition curve with a large enough effect in the repeat runs; inconclusive = weak or mixed curves; inactive = no such curve, though single readings can be large or run the other way.
The reply should name one outcome from 1.0 = active, 0.0 = inactive

Known results for compounds:
* CC(C)N1C(=O)c2ccccc2NS1(=O)=O | 0.0
* CCCN(CCC)N=O | 0.0
* COc1ccc2c3c1O[C@H]1[C@@H](O)C=C[C@H]4[C@@H](C2)N(C)CC[C@@]341 | 0.0
* CCNc1nc(NC(C)(C)C)nc(SC)n1 | 0.0
* NCC(O)c1ccc(O)cc1 (stereo unspecified) | 0.0
* C[C@]12CC[C@H]3[C@@H](CC[C@@]45O[C@@H]4C(O)=C(C#N)C[C@]35C)[C@@H]1CC[C@@H]2O | 0.0
* CC(Br)C(=O)O (stereo unspecified) | 0.0
* COC(=O)c1ccccc1C(=O)OC | 0.0
* CC(C)NC(=O)N1CC(=O)N(c2cc(Cl)cc(Cl)c2)C1=O | 0.0
* Cc1cc(-c2cc(C)c(N)c(C)c2)cc(C)c1N | 1.0

Challenge: Test call for this compound, please: Clc1ccc(Cl)cc1
Response given: 0.0

Challenge: Look up the recorded call for C#CCN(C)[C@H](C)Cc1ccccc1 in this test.
Response given: 0.0

Challenge: Hi team, can someone confirm the assay call for CCN(CC)CCO ?
Response given: 0.0

Challenge: Which outcome did this test record for the compound CCC[N+](=O)[O-] ?
Response given: 0.0

Challenge: Which outcome was assigned to [O-][Cl+2]([O-])O in this test?
Response given: 0.0

----------
experiment: qHTS RealTime-Glo MT Cell Viability Assay in HEK293 cells - 40 hour (AID 1224874); details: RealTime-Glo luminescence; active compounds read low; further: on the % scale 0 is the no-effect control and ±100 the full control effect; nearly all actives have a fitted effect of over 50% in size
Inconclusive results are not listed.
Give measured max response for each item. Keep answers brief.
Give bare numbers, in %.

• CN1C(=O)CN=C(c2ccccc2)c2cc(Cl)ccc21 = -22
• CCNc1nc(NC(C)C)nc(SC)n1 = -1.45
• CCC[N+](=O)[O-] = 7.7
• CCCCN(CC)C(=O)SCCC = 0.284
• O=c1[nH]c2ccccc2c(=O)o1 = -0.172

From here, focus on the item given below.
max response in this record for O=S(=O)(c1ccc(O)cc1)c1ccc(O)cc1 : -19.2

----------
molecular target: Nuclear receptor subfamily 1 group I member 2 (Homo sapiens); assay: Human pregnane X receptor (PXR) small molecule agonists, qHTS assay (AID 1346982); details: PXR-Luc HepG2, CYP3A4 luciferase reporter, 24 h; series mostly up to 92.4 µM; further: on the % scale 0 is the no-effect control and ±100 the full control effect; nearly all actives have a fitted effect of over 35% in size
Records with an inconclusive call do not appear. Active and inactive are the calls of the source. Calls follow the shape of the dose curve; as a rule, active = well fitted activation curve with a large enough effect in the repeat runs; inconclusive = weak or mixed curves; inactive = no such curve, though single readings can be large or run the other way.
Classes to choose from: yes (1) = active, no (0) = inactive

Challenge: For CC(C)(C)OOC(C)(C)C , what call appears in the results of this test?
Response given: no (0)

----------
assay: qHTS assay for identifying genotoxic compounds that show differential cytotoxicity against isogenic chicken DT40 cell lines with known DNA damage response pathways - wild type cell line (AID 743012); details: DT40 wild type chicken cells viability, CellTiter-Glo, 40 h; series mostly up to 68.4 µM; further: nearly all actives have a fitted effect of over 60% in size
Results filed as inconclusive are left out. The source made the active and inactive calls. Calls come from the whole dose curve; as a rule, active = well fitted cell-killing curve with a large enough effect in the repeat runs; inconclusive = weak or mixed curves, or effect the other way; inactive = no such curve, though single readings can be large or run the other way.
Parameter call: string, one of label 1 for active, label 0 for inactive

Completed entries (count: 4):
- CC(C)(C)OOC(C)(C)C: label 0
- CC(C)C#N: label 0
- C#CCN(C)[C@H](C)Cc1ccccc1: label 0
- CNC(=O)Oc1ccccc1OC(C)C: label 0

Challenge: Record request — test call for c1ccc(-c2ccccc2)cc1
Response given: label 0

Challenge: Returns: the outcome recorded for O=C(NC(=O)c1c(F)cccc1F)Nc1cc(Cl)c(OC(F)(F)C(F)C(F)(F)F)cc1Cl (stereo not drawn) in this assay.
Response given: label 1

Challenge: What outcome does the record of this test show for CCCN(CCC)c1c([N+](=O)[O-])cc(C(F)(F)F)cc1[N+](=O)[O-] ?
Response given: label 0

Challenge: Recorded test outcome, item CCCCCCCCCl
Response given: label 0

Challenge: What did this assay record as the result for CC1OC(C)OC(C)O1 (stereo not drawn) ?
Response given: label 0

Challenge: Test call for this molecule, please: NCCc1ccc(O)cc1
Response given: label 0

Challenge: Returns: the outcome recorded for Cc1cc(Cl)ccc1O in this assay.
Response given: label 0

----------
molecular target: Estrogen receptor (Homo sapiens); assay: qHTS assay to identify small molecule agonists of the estrogen receptor alpha (ER-alpha) signaling pathway in the presence of an antagonist (AID 1259383); details: VM7Luc4E2 cells, ERE-luciferase, +ICI-182,780, 22 h; series mostly up to 92.4 µM; further: nearly all actives have a fitted effect of over 15% in size
Calls of active or inactive are those of the source. Calls follow the shape of the full dose curve.
Use one of these outcomes when replying: class 1 (active), class 0 (inactive)

Worked set:
* ClCCBr | class 0
* O=c1n(Cl)c(=O)n(Cl)c(=O)n1Cl | class 0
* COc1ccc2c3c1O[C@H]1[C@@H](O)C=C[C@H]4[C@@H](C2)N(C)CC[C@@]341 | class 0

Challenge: Hi team, can someone confirm the assay call for C#CCN(C)[C@H](C)Cc1ccccc1 ?
Response given: class 0

Challenge: Please indicate how the test categorized O=S(=O)(c1ccc(O)cc1)c1ccc(O)cc1 .
Response given: class 1

Challenge: Fill in: this test's call for Cc1ccccc1O is ___
Response given: class 0

Challenge: Any idea what this test logged for Cc1[nH]c(=O)n(C(C)(C)C)c(=O)c1Cl ?
Response given: class 0

Challenge: Look up the recorded call for CN(N=O)c1ccccc1 in this test.
Response given: class 0

Challenge: Could you kindly confirm the outcome this assay logged for Cc1ccc(N)cc1Cl ?
Response given: class 0

Challenge: Test call for this compound, please: CC(Oc1ccc(Cl)cc1Cl)C(=O)O (stereo not given)
Response given: class 0

Challenge: Please indicate how the test categorized CC(C)(C)OOC(C)(C)C .
Response given: class 0

Challenge: I'd appreciate the recorded outcome for CC(C)OC(=O)Nc1cccc(Cl)c1 from this test.
Response given: class 0

Challenge: Given ClCc1cccnc1 , state the outcome it received in this test.
Response given: class 0

Challenge: Test call for this compound, please: CCCCN(CC)C(=O)SCCC
Response given: class 0

Challenge: Look up the recorded call for O=c1[nH]c2ccccc2c(=O)o1 in this test.
Response given: class 0

----------
assay: qHTS assay to identify small molecule agonists of the peroxisome proliferator-activated receptor delta (PPARd) signaling pathway - cell viability counter screen (AID 743211); details: PPARd-bla HEK293H viability, CellTiter-Glo luminescence, 17 h; series mostly up to 62.6 µM; further: on the % scale 0 is the no-effect control and ±100 the full control effect; nearly all actives have a fitted effect of over 55% in size
Records with an inconclusive call do not appear. Active and inactive are the calls of the source. Calls follow the shape of the dose curve; as a rule, active = well fitted cell-killing curve with a large enough effect in the repeat runs; inconclusive = weak or mixed curves; inactive = no such curve, though single readings can be large or run the other way.
reported-endpoint: outcome

Sample records with outcome:
- OCCN(CCO)CCO: inactive
- CC(Oc1ccc(Cl)cc1Cl)C(=O)O (stereo not given): inactive
- COP(N)(=O)SC (stereo not given): inactive
- O=C(O)c1ccccn1: inactive
- Cn1cc(-c2ccccc2)c(=O)c(-c2cccc(C(F)(F)F)c2)c1: inactive

Please state outcome for every compound in the list that follows.
1. Clc1ccc(Cl)cc1
2. O=c1ccc(=O)[nH][nH]1
3. CCOC(=O)c1ccccc1C(=O)OCC
4. CC(C)C1(C)N=C(c2nc3ccccc3cc2C(=O)O)NC1=O (stereo not given)
5. COC(=O)c1ccccc1N
6. CCC[CH2][Sn]([Cl])([Cl])[Cl]
7. NCC(O)c1ccc(O)cc1 (stereo not given)

Response given:
inactive
inactive
inactive
inactive
inactive
inactive
inactive

For every item below, please supply its outcome.
1. Nc1ccccc1C(=O)O
2. c1ccc(OP(Oc2ccccc2)Oc2ccccc2)cc1
3. CC(C#N)CCC#N (stereo not given)

Response given:
["inactive", "inactive", "inactive"]
